Each record here notes measured growth.
Test system: ACHN renal
protocol_summary: NCI-60 one-dose screen, 48 h (100 = growth as untreated, 0 = no growth, -100 = all killed)
condition_parameters: 10 µM
The panel holds about 83,000 compounds, 20% with a hit somewhere; the sample as a whole holds those more often. Active and inactive are the calls of the source. The calls were made as follows: active = growth percent below 10; inactive = the rest.

# compound, target_system, growth
measured = [
    ("CC(=O)C1CCC2C3CC=C4CC(SC(=N)N)CCC4(C)C3CCC12C (configuration not stated)", "ACHN renal", "54.4% (inactive)"),
    ("Cc1cc(O)ccc1C1=NN(c2ccc(S(C)(=O)=O)cc2)C(=O)CC1", "ACHN renal", "79.7% (inactive)"),
    ("CSc1ccc(-c2cc(-c3ccc(NC(=O)CCCN4CCCC4)cc3)nc(-c3ccc(NC(=O)CCCN4CCCC4)cc3)c2)cc1", "ACHN renal", "86.1% (inactive)"),
    ("O=C(CC(CC(=O)c1ccccc1)c1ccccc1O)c1ccccc1", "ACHN renal", "99.3% (inactive)"),
    ("CN(C)CCCOc1ccc(NC2=C(Cl)C(=O)C(Nc3ccc(OCCCN(C)C)cc3)=C(Cl)C2=O)cc1", "ACHN renal", "-94.1% (active)"),
    ("COc1cc(/C=C2\\CCCC3=C2NC(N)=NC3c2cc(OC)c(OC)c(OC)c2)cc(OC)c1OC (configuration not stated)", "ACHN renal", "-37.9% (active)"),
    ("COc1cc(-c2csc(NC(=O)Nc3ccc(Cl)c(C(F)(F)F)c3)n2)cc(OC)c1OC", "ACHN renal", "-8.21% (active)"),
]

* * *

System: MDA-MB-435 melanoma
protocol_summary: NCI-60 one-dose screen, 48 h (100 = growth as untreated, 0 = no growth, -100 = all killed)
condition_parameters: 10 µM
The panel holds about 83,000 compounds, 20% with a hit somewhere; the sample as a whole holds those more often.
Each record here notes measured growth.
readout: growth (%)

# compound, unit_descriptor, recorded_measurement
measured = [
    ("Cc1cc(C)nc(NS(=O)(=O)c2ccc(Nc3nc4nc(NCc5ccccc5)nc(-c5ccc(O)cc5)c4c(=O)[nH]3)cc2)n1", "%", 32.1),
    ("CC(=O)OC/C=C(/C)C[P+](c1ccccc1)(c1ccccc1)c1ccccc1", "%", 53.3),
    ("O=C1/C=C/[C@@H](O)[C@@H]2C[C@@H](O)C[C@H]2/C=C/CCC[C@H](C(F)(F)F)O1", "%", 6.68),
    ("CC[C@@H](C(=O)[C@H](C)[C@H](O)[C@@H](C)[C@H]1O[C@H]([C@@H](CC)C(=O)O)CC[C@H]1C)C1O[C@]2(C=C[C@@H](O)[C@]3(CC[C@@](C)([C@H]4CC[C@](O)(CC)[C@H](C)O4)O3)O2)[C@H](C)C[C@@H]1C (stereo not given in full)", "%", -16.3),
    ("NC1=CC(=O)C(=O)c2cccnc21", "%", -82.8),
]

* * *

Test system: M14 melanoma
protocol_summary: NCI-60 one-dose screen, 48 h (100 = growth as untreated, 0 = no growth, -100 = all killed)
condition_parameters: 10 µM
The panel holds about 83,000 compounds, 20% with a hit somewhere; the sample as a whole holds those more often.
readout: growth (%)

# compound, target_system, unit_descriptor, recorded_measurement
measured = [
    ("COc1ccc(C(=O)c2cc3c(OC)c(OC)c(OC)cc3[nH]2)cc1", "M14 melanoma", "%", 30.2),
    ("CCNc1nc(C(F)(F)F)nc2c1sc(=S)n2-c1ccccc1", "M14 melanoma", "%", 108),
    ("CC(C)[N+]1(C)C2CC[C@@H]1CC(OC(=O)C(CO)c1ccccc1)C2 (stereo not given in full)", "M14 melanoma", "%", 110),
    ("CCn1cc(C(=O)O)c(=O)c2cc(F)c(N3CCNCC3)cc21", "M14 melanoma", "%", 117),
    ("Cc1cn(-c2cc(F)cc(NC(=O)c3ccc(C)c(Nc4nccc(-c5cccnc5)n4)c3)c2)cn1", "M14 melanoma", "%", 60.2),
]

* * *

Test system: K-562 leukemia
protocol_summary: NCI-60 one-dose screen, 48 h (100 = growth as untreated, 0 = no growth, -100 = all killed)
condition_parameters: 10 µM
Compounds without any hit were thinned out: in the full panel of roughly 83,000, 20% have a hit.
The label depends only on growth: yes (1) if it is at least 50%, no (0) if it is smaller.

# molecule, group_label
data = [
    ("COc1ccc(/C=C/c2nnc(/C=C/c3ccc(OC)c(OC)c3)o2)cc1OC", "no (0)"),
    ("CCOC(=O)Cn1c(=O)c2sc3ncccc3c2n2nnc(-c3ccccc3)c12", "yes (1)"),
    ("N#CCc1csc(Cc2ccccc2)n1", "yes (1)"),
    ("Cc1cccc(N=Cc2ccccc2O)c1C", "yes (1)"),
    ("O=C(CCl)Nc1ccc(Cc2ccc(NC(=O)CCl)cc2)cc1", "no (0)"),
    ("NS(=O)(=O)c1ccc(Br)cc1", "yes (1)"),
    ("CCN(CC)CC(=O)N(CC)c1ccc(C)c(Cl)c1", "yes (1)"),
    ("COc1ccccc1N1CCCSC1=Nc1ccccc1", "yes (1)"),
    ("C/C(=N\\O)c1ccc(NC(=O)CSc2nnc(-c3ccccc3)n2-c2ccccc2)cc1", "yes (1)"),
    ("O=C(CCl)Oc1ccc(OC(=O)CCl)cc1", "yes (1)"),
    ("O=C(CSc1nnc(-c2cccnc2SCc2ccccc2)o1)Nc1nc(Cl)cc(Cl)n1", "yes (1)"),
    ("CN1CCN(CC(=O)Nc2cccc(-n3cc(-c4ccncc4)c(-c4ccc(Cl)c(O)c4)n3)c2)CC1", "no (0)"),
    ("O=C(CCCSc1nc(-c2ccccc2)cc(-c2ccc(Cl)cc2)n1)NO", "no (0)"),
    ("OCC1OC2C(NC(=S)N2c2ccccc2)C(O)C1O (stereo unspecified)", "yes (1)"),
    ("CS(=O)(=O)c1nccc(-c2c(-c3cccc(OCc4ccccc4)c3)nc3sccn23)n1", "no (0)"),
    ("Fc1ccc(C(c2ccc(F)cc2)C(Cl)Cl)cc1", "yes (1)"),
    ("COc1cc(OC)c2c(=O)c(O)c(-c3ccccc3)oc2c1", "yes (1)"),
    ("O=C(Nc1ccc(NS(=O)(=O)c2ccc(F)cc2)cc1)C12CC3CC(CC(C3)C1)C2", "yes (1)"),
    ("N#Cc1c(-c2ccc(Cl)cc2)cc(-c2cc(O)ccc2O)nc1N", "no (0)"),
    ("CCN(CC)CCNc1ccc(C)c2sc3cc(Cl)ccc3c(=O)c12", "no (0)"),
    ("C#CCOc1c(OC)cc(C(=O)/C(C)=C/c2cccc(N=[N+]=[N-])c2)cc1OC", "no (0)"),
    ("CC1=CC2C(C(O)CC3(C)C2CC(C)C32OCOC23COCO3)C2(C)C/C(=C/O)C(=O)C=C12 (stereo unspecified)", "no (0)"),
    ("Cc1ccc(-c2c3c(N)nc(-c4cccnc4)nc3nc3c2c(C)nn3-c2ccccc2)cc1", "yes (1)"),
    ("CNC(=O)c1cn(C2CC2)c2cc(N3CCN(C(=O)c4cc(OC)c(OC)c(OC)c4)CC3)c(F)cc2c1=O", "yes (1)"),
    ("COc1ccc(C(=O)CSc2nc(-c3cc(OC)ccc3OC)cc(-c3ccc(OC)cc3)c2C#N)cc1", "yes (1)"),
    ("COc1cc(C(=O)n2nc(-c3cc(OC)c(OC)c(OC)c3)nc2N)cc(OC)c1OC", "yes (1)"),
    ("O=C(CCCSc1nc(-c2ccc(Cl)cc2)cc(-c2ccc(Cl)cc2)n1)NO", "no (0)"),
    ("CCCN1CN2C(=O)N3CN(CCC)CN4C(=S)N(C1)C2C34 (stereo unspecified)", "yes (1)"),
    ("Fc1ccc2[nH]cc(-c3nc(-c4ccsc4)cs3)c2c1", "yes (1)"),
    ("O=C1c2ccccc2C(=O)c2c1ccc1c(=O)n(-c3ccccc3C(F)(F)F)nnc21", "no (0)"),
    ("CCCCCCCCCCCC[n+]1c(C)cc(N)c2ccccc21", "no (0)"),
    ("C[n+]1c2ccccc2nc2ccccc21", "no (0)"),
    ("COc1ccc(N(C)c2ncnc3occ(C)c23)cc1", "no (0)"),
    ("N#CC1=CC2CN(Cc3ccccc3)C1C1C(=O)N(c3ccccc3)C(=O)C21 (stereo unspecified)", "yes (1)"),
    ("CC[C@@H](C(=O)[C@H](C)[C@H](O)[C@@H](C)[C@H]1O[C@H]([C@@H](CC)C(=O)N(CC)CC)CC[C@H]1C)C1O[C@]2(C=C[C@@H](O)[C@]3(CC[C@@](C)([C@H]4CC[C@](O)(CC)[C@H](C)O4)O3)O2)[C@H](C)C[C@@H]1C (stereo partly specified)", "no (0)"),
    ("CN(C)CCOc1cccc(-c2nc3sccn3c2-c2ccnc(S(C)(=O)=O)n2)c1", "yes (1)"),
    ("CCOC(=O)c1cc(C(=O)c2ccc(F)cc2F)n2ccccc12", "yes (1)"),
    ("CCN(CC)CCCC(C)N=C(C1=C(C(=NC(C)CCCN(CC)CC)c2cccc(OC)c2)C(=O)NC1=O)c1cccc(OC)c1 (stereo unspecified)", "no (0)"),
    ("COc1cc2c3c(n(C4CCNCC4)c(=O)c2cc1OC)-c1cc2c(cc1C3=O)OCO2", "no (0)"),
    ("O=C1CCn2c1c(O)c1ccccc1c2=O", "yes (1)"),
    ("O=C(Nc1ccc2c(O)cc(S(=O)(=O)O)cc2c1)c1ccc([N+](=O)[O-])cc1", "yes (1)"),
]
